Tested on: normal human dermal fibroblasts (NHDF)
Assay: XTT cell proliferation assay, normal human dermal fibroblast control
Assay type: cell-based
Settings: Control data: Normal human dermal fibroblast control
pEC50: −log10 of the molar value.
assay.metric: pEC50

[[record]]
smiles_input = "Cc1cnc(Nc2ccc(N3CCN(C)CC3)cc2)nc1Nc1cccc(S(=O)(=O)NC(C)(C)C)c1"
assay_metric = "pEC50"
result_number = 5.19


====

Assay: Ocular exposure after eye drop administration
Format: in vivo
Conditions: cornea, mouse, bilateral topical instillation of 0.1% formulation QDX1, read-out: Concentration (nM) Cornea
assay.metric: concentration at 6 h (nM)

[[record]]
molecule = "COc1cc(Nc2nc(Nc3ccc(OCCN4CCCC4)cc3)ncc2C)ccc1Cl [XVII]"
result_number = 3780


====

Entries and their concentration at 7 h values follow.
Experiment: Ocular exposure after eye drop administration
Type: in vivo
Conditions: retina; mouse; bilateral topical instillation of 0.1% formulation QDX1; 7 hr; read-out: Concentration (nM) retina
assay.metric: concentration at 7 h (nM)

[[record]]
compound = "COc1cc(Nc2nc(Nc3ccc(OC4CCNCC4)cc3)ncc2C)ccc1Cl [Compound LXXXII]"
result_number = 592

[[record]]
compound = "COc1cc(Nc2nc(Nc3ccc(N4CCNCC4)cc3)ncc2C)ccc1Cl [Compound XLIV]"
result_number = 321

[[record]]
compound = "Cc1cnc(Nc2ccc(N3CCN(C)CC3)cc2)nc1Nc1ccc(Cl)c2[nH]ccc12 [Compound LXXIV]"
result_number = 2150

[[record]]
compound = "Cc1cnc(Nc2ccc(OCCN3CCCC3)cc2)nc1Nc1cccc2c1OCO2 [Compound XXXVI]"
result_number = 11200


====

Target: recombinant JAK2 (Homo sapiens)
Construct: purchased Upstate Cell Signaling Solutions
Assay: IC50 value determinations for Jak2 kinase, luminescence-based kinase assay (Kinase-Glo)
Assay type: biochemical
Details: Table 7, SAR for the P3 region
pIC50: −log10 of the molar value.
Entries and their pIC50 values follow.
assay.metric: pIC50

[[record]]
smiles_input = "COc1cc(Nc2nc(Nc3ccc(OCCN4CCCC4)cc3)ncc2C)ccc1Cl"
result_comparator = "="
result_number = 8.10

[[record]]
smiles_input = "COc1cc(Nc2nc(Nc3cccc(OCCN4CCCC4)c3)ncc2C#N)c(Cl)cc1Cl"
result_comparator = "="
result_number = 4.98

[[record]]
smiles_input = "COc1cc(Nc2nc(Nc3cccc(OCCN4CCCC4)c3)ncc2C)c(Cl)cc1Cl"
result_comparator = "="
result_number = 5.69

[[record]]
smiles_input = "Cc1nc(Nc2ccccc2)nc(Nc2cccc3c2OCO3)c1C"
result_comparator = "<"
result_number = 5.00

[[record]]
smiles_input = "COc1cccc(Nc2ccnc(Nc3ccc(OCCN4CCCC4)cc3)n2)c1"
result_comparator = "="
result_number = 6.98

[[record]]
smiles_input = "COc1ccc(Nc2ncc(C)c(Nc3cccc4c3OCO4)n2)cc1"
result_comparator = "="
result_number = 7.34

[[record]]
smiles_input = "COc1cccc(Nc2nc(Nc3ccc(OCCN4CCCC4)cc3)ncc2C)c1"
result_comparator = "="
result_number = 7.28


====

Target: recombinant JAK2 (Homo sapiens, UniProt O60674)
Construct: purchased Upstate Cell Signaling Solutions
Sequence (O60674 808-1132 limits assumed): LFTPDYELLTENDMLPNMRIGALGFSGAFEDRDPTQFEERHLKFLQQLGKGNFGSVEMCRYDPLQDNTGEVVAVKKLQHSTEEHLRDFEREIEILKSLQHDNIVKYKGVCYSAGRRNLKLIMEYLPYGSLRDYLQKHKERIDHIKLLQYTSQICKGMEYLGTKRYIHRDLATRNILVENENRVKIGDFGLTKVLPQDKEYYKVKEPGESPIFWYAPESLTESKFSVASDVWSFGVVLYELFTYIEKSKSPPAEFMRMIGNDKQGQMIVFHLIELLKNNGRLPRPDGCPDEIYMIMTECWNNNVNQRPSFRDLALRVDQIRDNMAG
Assay: IC50 value determinations for Jak2 kinase, luminescence-based kinase assay (Kinase-Glo)
Format: biochemical
Conditions: Table 1
Where a name gives a salt, the structure may show the parent alone.
IC50 strictly less than 40 nM = true. Otherwise false.

[[record]]
compound = "Cc1cnc(Nc2ccc(OCCN3CCCC3)cc2)nc1Nc1cccc([N+](=O)[O-])c1 [Hydrochloride]"
assigned_category = "false"

[[record]]
compound = "Cc1cnc(Nc2ccc(N3CCN(C)CC3)cc2)nc1Nc1cccc2c1OCO2"
assigned_category = "true"

[[record]]
compound = "Cc1cnc(Nc2ccc(N3CCN(C)CC3)cc2)nc1Nc1cccc(C(=O)NC(C)C)c1"
assigned_category = "false"

[[record]]
compound = "COC(=O)c1cc(Nc2ncc(C)c(Nc3ccc(Cl)c(OC)c3)n2)ccc1N1CCNCC1"
assigned_category = "true"

[[record]]
compound = "Cc1cnc(Nc2ccc(Cn3ccnc3)cc2)nc1Nc1cccc(S(=O)(=O)NC(C)(C)C)c1"
assigned_category = "true"

[[record]]
compound = "Cc1cnc(Nc2ccc(N3CCN(C)CC3)cc2)nc1Nc1cccc(S(C)(=O)=O)c1"
assigned_category = "false"

[[record]]
compound = "CC(=O)Nc1cccc(Nc2nc(Nc3ccc(OC4CCNCC4)cc3)ncc2C)c1C"
assigned_category = "false"

[[record]]
compound = "COc1cc(Nc2nc(Nc3ccc(N4CCCCC4)cc3)ncc2C)ccc1Cl"
assigned_category = "true"

[[record]]
compound = "Cc1cnc(Nc2ccc(N3CCN(C)CC3)cc2)nc1Nc1cccc(C2CCNCC2)c1"
assigned_category = "false"

[[record]]
compound = "Cc1cnc(Nc2ccc(OC3CCNCC3)cc2)nc1Nc1cccc2[nH]ccc12 [trifluoroacetic acid salt]"
assigned_category = "true"

[[record]]
compound = "Cc1cnc(Nc2ccc(OCCN3CCCC3)cc2)nc1Nc1ccc(Cl)cc1 [trifluoroacetate]"
assigned_category = "true"

[[record]]
compound = "COc1cc(Nc2nc(Nc3ccc(OCCN4CCCC4)cc3)ncc2C)ccc1F"
assigned_category = "true"

[[record]]
compound = "Cc1cnc(Nc2ccc(N3CCN(C)CC3)cc2)nc1Nc1cccc(S(=O)(=O)NC2CCNCC2)c1"
assigned_category = "false"

[[record]]
compound = "Cc1cnc(Nc2ccc(N3CCN(C)CC3)cc2)nc1Nc1cccc(S(=O)(=O)NC2CCCC2)c1 [Hydrochloride]"
assigned_category = "true"

[[record]]
compound = "Cc1cnc(Nc2ccc(N3CCN(C)CC3)cc2)nc1Nc1cccc(S(=O)(=O)N(C)C)c1"
assigned_category = "true"

[[record]]
compound = "Cc1cnc(Nc2ccc(OCCN3CCCC3)cc2)nc1Nc1ccc2sccc2c1"
assigned_category = "true"

[[record]]
compound = "Cc1cnc(Nc2ccc(N3CCN(C)CC3)cc2)nc1Nc1cccc(NC(=O)Nc2cccc(C(F)(F)F)c2)c1"
assigned_category = "false"

[[record]]
compound = "Cc1cnc(Nc2ccc(OCCN3CCCC3)cc2)nc1Nc1ccc(Cl)c2[nH]ccc12 [Hydrochloride]"
assigned_category = "true"

[[record]]
compound = "COc1cccc(Nc2ccnc(Nc3ccc(OCCN4CCCC4)cc3)n2)c1C"
assigned_category = "false"

[[record]]
compound = "Cc1cnc(Nc2ccc(N3CCN(C)CC3)cc2)nc1Nc1cccc2[nH]ccc12 [Hydrochloride]"
assigned_category = "true"

[[record]]
compound = "COc1cc(Nc2nc(Nc3ccc(N4CCN(C)CC4)cc3)ncc2C)ccc1Cl"
assigned_category = "true"

[[record]]
compound = "Cc1cnc(Nc2ccc(N3CCOCC3)cc2)nc1Nc1cccc(S(=O)(=O)NC(C)(C)C)c1"
assigned_category = "true"

[[record]]
compound = "COc1cc(Nc2nc(Nc3ccc(OCCN4CCCC4)cc3)ncc2C)ccc1Cl [drawing 311]"
assigned_category = "true"

[[record]]
compound = "Cc1ccc(Nc2nc(Nc3ccc(N4CCN(C)CC4)cc3)ncc2C)cc1S(C)(=O)=O"
assigned_category = "false"

[[record]]
compound = "Cc1cnc(Nc2cccc(-c3nnn[nH]3)c2)nc1Nc1cccc(S(=O)(=O)NC(C)(C)C)c1"
assigned_category = "false"

[[record]]
compound = "Cc1cnc(Nc2ccc(OCCN3CCCC3)cc2)nc1Nc1cccc2[nH]ccc12 [Hydrochloride]"
assigned_category = "true"

[[record]]
compound = "COc1cc(Nc2nc(Nc3ccc(CN4CCN(C)CC4)cc3)ncc2C)ccc1Cl"
assigned_category = "true"

[[record]]
compound = "Cc1cnc(Nc2ccc(-n3ccnc3)cc2)nc1Nc1cccc(S(=O)(=O)NC(C)(C)C)c1"
assigned_category = "true"

[[record]]
compound = "COc1cc(Nc2nc(Nc3cccc(OCCN4CCCC4)c3)ncc2C#N)c(Cl)cc1Cl [drawing 299]"
assigned_category = "false"

[[record]]
compound = "Cc1cnc(Nc2cccc(S(=O)(=O)N3CCN(C)CC3)c2)nc1Nc1cccc(S(=O)(=O)NC(C)(C)C)c1"
assigned_category = "false"

[[record]]
compound = "Cc1cnc(Nc2ccc(OCCN3CCCC3)cc2)nc1Nc1csc2ccccc12"
assigned_category = "true"

[[record]]
compound = "CC(=O)N1CCN(c2ccc(Nc3ncc(C)c(Nc4cccc(S(=O)(=O)NC(C)(C)C)c4)n3)cc2)CC1"
assigned_category = "true"

[[record]]
compound = "Cc1cnc(Nc2ccc(CN3CCNCC3)cc2)nc1Nc1ccc(Cl)c2[nH]ccc12 [Hydrochloride]"
assigned_category = "false"

[[record]]
compound = "Cc1cnc(Nc2ccc(N3CCN(C)CC3)cc2)nc1Nc1cccc(S(=O)(=O)C2CCNCC2)c1"
assigned_category = "false"


====

Target: recombinant JAK2 (Homo sapiens, UniProt O60674)
Construct: purchased Upstate Cell Signaling Solutions
Test: IC50 value determinations for Jak2 kinase, luminescence-based kinase assay (Kinase-Glo)
Assay type: biochemical
Conditions: Table 1
Where a name gives a salt, the structure may show the parent alone.
assay.metric: log10(IC50) (log10 of the value in nM)

[[record]]
compound = "Cc1cnc(Nc2ccc(N3CCN(C)CC3)cc2)nc1Nc1ccc(C)c2[nH]ccc12 [Hydrochloride]"
result_number = 0.58

[[record]]
compound = "Cc1cnc(Nc2ccc(N3CCNCC3)cc2)nc1Nc1cccc(S(=O)(=O)NC(C)(C)C)c1 [Hydrochloride]"
result_number = 0.88

[[record]]
compound = "CNS(=O)(=O)c1cccc(Nc2nc(Nc3ccc(N4CCN(C)CC4)cc3)ncc2C)c1"
result_number = 1.21

[[record]]
compound = "Cc1cnc(Nc2ccc(C(C)N3CCOCC3)cc2)nc1Nc1cccc(S(=O)(=O)NC(C)(C)C)c1 (stereo not shown)"
result_number = 1.47

[[record]]
compound = "c1ccc(Cc2ccnc(Nc3ccc(OCCN4CCCC4)cc3)n2)cc1"
result_number = 2.85

[[record]]
compound = "Cc1cnc(Nc2ccc(Cn3cncn3)cc2)nc1Nc1cccc(S(=O)(=O)NC(C)(C)C)c1"
result_number = 1.55

[[record]]
compound = "Cc1cnc(Nc2ccc(OCCN3CCCC3)cc2)nc1Nc1ccc(Cl)c(Cl)c1"
result_number = 1.41

[[record]]
compound = "Cc1cnc(Nc2ccc(OCCN3CCCC3)cc2)nc1Nc1ccc2c(c1)OCO2 [trifluoroacetate]"
result_number = 1.94

[[record]]
compound = "Cc1cnc(Nc2cccc(CN3CCOCC3)c2)nc1Nc1cccc(S(=O)(=O)NC(C)(C)C)c1"
result_number = 0.85

[[record]]
compound = "CCOC(=O)c1cccc(Nc2nc(Nc3ccc(N4CCN(C)CC4)cc3)ncc2C)c1C"
result_number = 1.44

[[record]]
compound = "COc1cc(Nc2nc(Nc3ccc(OC4CCNCC4)cc3)ncc2C)ccc1Cl [drawing 349]"
result_number = 0.62

[[record]]
compound = "Cc1cnc(Nc2ccc(OC3CCNCC3)cc2)nc1Nc1cccc(S(=O)(=O)NC(C)(C)C)c1"
result_number = 0.86

[[record]]
compound = "Cc1cnc(Nc2ccc(-n3cncn3)cc2)nc1Nc1cccc(S(=O)(=O)NC(C)(C)C)c1"
result_number = 1.62

[[record]]
compound = "Cc1cnc(Nc2ccc(CN3CCNCC3)cc2)nc1Nc1cccc(S(=O)(=O)NC(C)(C)C)c1"
result_number = 0.66

[[record]]
compound = "COc1cc(Nc2nc(Nc3ccc(CN4CCOCC4)cc3)ncc2C)ccc1Cl [trifluoroacetate]"
result_number = 1.12

[[record]]
compound = "Cc1cnc(Nc2ccc(OC3CCNCC3)cc2)nc1Nc1cccc(C)c1C [Hydrochloride]"
result_number = 0.64

[[record]]
compound = "Cc1cnc(Nc2ccc(-n3cccn3)cc2)nc1Nc1cccc(S(=O)(=O)NC(C)(C)C)c1"
result_number = 1.28

[[record]]
compound = "Cc1cnc(Nc2ccc(-n3ccnc3C)cc2)nc1Nc1cccc(S(=O)(=O)NC(C)(C)C)c1"
result_number = 1.54

[[record]]
compound = "Cc1cn(-c2ccc(Nc3ncc(C)c(Nc4cccc(S(=O)(=O)NC(C)(C)C)c4)n3)cc2)cn1"
result_number = 1.62

[[record]]
compound = "Cc1ccc(Nc2nc(Nc3ccc(-n4ccnc4)cc3)ncc2C)cc1S(=O)(=O)NC(C)(C)C"
result_number = 1.95

[[record]]
compound = "Cc1cnc(Nc2ccc(C3CCNCC3)cc2)nc1Nc1cccc(C(C)(C)C)c1 [Hydrochloride]"
result_number = 1.32

[[record]]
compound = "Cc1cnc(Nc2ccc(OCCN3CCCC3)cc2)nc1Nc1ccc(Cl)c(F)c1"
result_number = 1.60

[[record]]
compound = "Cc1cnc(Nc2ccc(OC3CCNCC3)cc2)nc1Nc1cccc(C(C)(C)C)c1 [Hydrochloride]"
result_number = 0.44

[[record]]
compound = "Cc1cnc(Nc2ccc(C(C)N3CCOCC3)cc2)nc1Nc1cccc(C(C)(C)C)c1 (stereo not shown) [Hydrochloride]"
result_number = 1.30

[[record]]
compound = "COC(=O)c1cc(Nc2ncc(C)c(Nc3cccc4c3OCO4)n2)ccc1OCCN1CCCC1"
result_number = 1.21

[[record]]
compound = "Cc1cnc(Nc2ccc(OCCN3CCCC3)cc2)nc1Nc1cccc(O)c1 [Hydrochloride]"
result_number = 2.31

[[record]]
compound = "Cc1ccc(Nc2nc(Nc3ccc(OCCN4CCCC4)cc3)ncc2C)cc1 [Hydrochloride]"
result_number = 1.55

[[record]]
compound = "Cc1cnc(Nc2ccc(OCCN3CCCC3)cc2)nc1Nc1nccc2ccccc12"
result_number = 3.02

[[record]]
compound = "COc1cc(Nc2nc(Nc3ccc(N4CCNCC4)nc3)ncc2C)ccc1Cl"
result_number = 1.08

[[record]]
compound = "CCN(CC)S(=O)(=O)c1cccc(Nc2nc(Nc3ccc(N4CCN(C)CC4)cc3)ncc2C)c1"
result_number = 1.78

[[record]]
compound = "Cc1cnc(Nc2ccc(Cn3ccnc3C)cc2)nc1Nc1cccc(S(=O)(=O)NC(C)(C)C)c1"
result_number = 1.34

[[record]]
compound = "Cc1cnc(Nc2ccc(CN3CCOCC3)cc2)nc1Nc1cccc2[nH]ccc12"
result_number = 0.87

[[record]]
compound = "COc1cc(Nc2nc(Nc3cccc(CN4CCNCC4)c3)ncc2C)ccc1Cl"
result_number = 1.20

[[record]]
compound = "Cc1cnc(Nc2ccc(OCCN3CCCC3)cc2)nc1Nc1cccc2ccccc12 [Hydrochloride]"
result_number = 1.30

[[record]]
compound = "Cc1cnc(Nc2ccc(Cc3ccncc3)cc2)nc1Nc1cccc(S(=O)(=O)NC(C)(C)C)c1"
result_number = 1.91

[[record]]
compound = "Cc1cnc(Nc2ccc(N3CCN(C)CC3)cc2)nc1Nc1cccc(N2CCCCC2)c1"
result_number = 1.67

[[record]]
compound = "Cc1cnc(Nc2ccc(OC3CCNCC3)cc2)nc1Nc1ccc(Cl)c(C(F)(F)F)c1"
result_number = 1.06


This collection of values is drawn from patent US8604042B2.
